Source: a melting point compilation (Tetko et al.; mined from patent text by program, amines drawn as free bases though some values may be those of a salt)

Reported melting point values follow for various compounds
QUANTITY_MEASURED: melting point

# COMPOUND, RESULT
rows = [
    ("O=C(CCCCCCCCC1CO1)OCCOC(=O)CCCCCCCCC1CO1 (stereo not given)", "39 to 40 °C"),
    ("O=C(C=C(c1ccccc1Cl)n1cncn1)c1ccccc1", "79 to 81 °C"),
    ("Cc1ccc(S(=O)(=O)NC(=O)OCCc2ccc(-n3c(C(C)C)nc4cc(C(=O)N(C)C)c(Cl)cc43)cc2)cc1", "173 to 176 °C"),
    ("Sc1nc2ccc(Cl)cc2c2nc(-c3ccc(Br)o3)nn12", "273 to 276 °C"),
    ("CN1C(=O)C(N)N=C(c2ccccc2)c2ccncc21 (stereo not given)", "94 to 118 °C"),
]

###

# MOLECULE, melting point
data = [
    ("Cc1nc2c3c(c(C(=O)N4CC(O)C4)cc2n1C)CCC1(Cc2ccccc2C1)N3", "171 to 172 °C"),
    ("O=C(NCc1ccccc1)c1ccnc(-n2ccc(O)cc2=O)c1", "102 to 105 °C"),
    ("CC(=O)Nc1cc(C(=O)NNC(=O)c2occ(-c3ccccc3)c2-c2ccccc2)ccc1O", "233 to 235 °C"),
    ("COc1ccc([C@H](Sc2cc(Oc3ccc4c(c3)OCO4)ccc2N)[C@@H](O)C(=O)O)cc1", "112 to 113 °C"),
]

###

melting point values for the molecules below.
QUANTITY_MEASURED: melting point

# MOLECULE, RESULT
data = [
    ("COC(O)c1ccc2c(c1)C(C(Cl)(Cl)Cl)OC(C(Cl)(Cl)Cl)O2 (centres undefined)", "123 to 125 °C"),
    ("CC(=O)NCCc1cccc2ccc(O)cc12", "125 to 126 °C"),
    ("C#CCn1c(C(F)(F)F)c(C(=O)OCC)oc1=O", "72 °C"),
    ("Cc1c(SCCCN2CCN(Cc3ccc(Cl)s3)CC2)ccnc1CSc1nc2cc(F)ccc2[nH]1", "116 to 119 °C"),
]

###

Quick list: melting point per entry.

# COMPOUND, melting point
data = [
    ("CCOC(=O)N[C@@H](C(=O)N1CCC[C@H]1C(=O)O)c1ccccc1", "163 to 166 °C"),
    ("CC(CC(=O)N1CCCC1)Sc1cc(C(C)(C)C)c(O)c(C(C)(C)C)c1 (stereo not drawn)", "95 to 99 °C"),
    ("CCCCN(CCCC)CCCNS(=O)(=O)c1ccc2c(c1)C(=O)c1cc(S(=O)(=O)NCCCN(CCCC)CCCC)ccc1C2=O", "93 to 95 °C"),
    ("Cc1c(O)cc(N2C(=O)c3ccccc3C2=O)cc1C(=O)OCc1ccc([N+](=O)[O-])cc1", "210 to 244 °C"),
    ("COc1cc2ncc(NC3CCCCC3)nc2cc1OC", "149 to 151 °C"),
    ("COC(=O)C1CC(=O)C(NC(C)=O)=C(O)C1 (stereo not drawn)", "131 to 132 °C"),
    ("COC(=O)c1cnn2c(C(F)(F)F)cc(O)nc12", "149 to 150 °C"),
    ("O=C1NC(=O)c2c1c(O)nc1cc(Cl)c(Cl)cc21", "> 350 °C"),
    ("CC(=Cc1ccc(F)cc1F)C(=O)O", "126 to 128 °C"),
    ("CCn1c(=O)[nH]c(=O)c2c(-c3ccc(F)cc3)c(/C=C/C=O)c(C3CC3)nc21", "236 °C"),
    ("Cc1cc(Br)cc(C(=O)O)c1N", "245 °C"),
    ("Cc1cc2c(cc1C)-n1nnnc1C=C(c1ccc(-n3c(C)nc4cnccc43)cc1)N2", "315 °C"),
    ("CCOC(=O)c1cc2c(nc(C)n2C)c2c1C(=O)CC1(Cc3ccccc3C1)N2", "205 to 206 °C"),
    ("Cc1c(C)c2c(c(C)c1N)C(c1ccccc1)CO2 (stereo not drawn)", "94 to 95 °C"),
    ("Nc1ncccc1CNC1CCN(Cc2ccccc2)CC1", "114 °C"),
    ("CCCCc1oc2ccccc2c1C(=O)NCc1ccc(-c2ccc(OCC(=O)O)c(Br)c2)cc1", "175 to 190 °C"),
    ("Cc1cc(SCc2ccc(-c3ccc(C(F)(F)F)cn3)cc2)c2c(c1OCC(=O)O)CCO2", "94 to 95 °C"),
    ("CC1=C(C(=O)OCC(C)C)C(c2cccc([N+](=O)[O-])c2)c2c(nc(N3CCOCC3)nc2N2CCOCC2)N1 (stereo not drawn)", "214 °C"),
    ("CC1(C)CC(N)CC(C)(C)N1Cc1ccccc1", "73 to 75 °C"),
    ("OC(c1ccc(Cl)cc1)c1cccc(Br)c1 (stereo not drawn)", "67 to 68 °C"),
    ("C1=C(c2cccc3c2ccn3Cc2ccccc2)CCN(Cc2ccccc2)C1", "154 °C"),
    ("CCSCC(=O)Nc1c(C)cccc1C", "96 to 98 °C"),
    ("CC1(CSc2ccccc2)COC2(CCCCC2)OO1 (stereo not drawn)", "45 to 46 °C"),
]
